# protocol_details: Clearance in Sprague-Dawley rat plasma at 10 mg/kg, iv measured up to 48 hrs by LC-MS/MS analysis
# Assay type: ADME, organism-based
reported_metric: clearance

Asked: Return clearance for the following molecule: O=C(Cc1cccc(Oc2ccccc2)c1)Nc1nnc(N[C@@H]2CCN(c3cccnn3)C2)s1
Given back: 36.4 mL/min/kg

---

# protocol_details: AUC(0 to t) in Sprague-Dawley rat plasma at 100 mg/kg, po measured up to 48 hrs by LC-MS/MS analysis
# Assay type: ADME, organism-based
# Set-up: dose 100 mg/kg, time < 48 hrs, route po
reported_metric: AUC(0-t) at 48 h (ng·h/mL)
Enter your answer as a number in ng·h/mL; do not include the unit.

Asked: For the compound O=C(Cc1cccc(Oc2ccccc2)c1)Nc1nnc(N[C@@H]2CCN(c3cccnn3)C2)s1 , give its measured AUC(0-t) at 48 h value.
Given back: 2310
